TEST_TARGET: BaF3 PIM1 cells (Homo sapiens, UniProt P11309)
Sequence (P11309 whole entry, change not shown): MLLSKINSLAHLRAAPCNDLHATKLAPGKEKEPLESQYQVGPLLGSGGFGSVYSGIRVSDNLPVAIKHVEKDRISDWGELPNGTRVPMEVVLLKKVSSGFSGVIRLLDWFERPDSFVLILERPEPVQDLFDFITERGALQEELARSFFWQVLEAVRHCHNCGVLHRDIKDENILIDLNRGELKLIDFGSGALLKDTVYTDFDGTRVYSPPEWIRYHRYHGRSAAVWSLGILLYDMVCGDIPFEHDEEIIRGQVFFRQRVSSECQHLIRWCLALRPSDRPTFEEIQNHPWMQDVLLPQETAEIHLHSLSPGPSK
ASSAY_DETAILS: BaF3 PIM1 cell proliferation (Cell Titer Glo)
Assay type: cell-based
PARTICULARS: incubated overnight; read-out: Prolif BaF3_PIM1 (IC50)
Could you please report measured GI50 for the items listed next?
Field format: number, assumed nM, no unit text.

-- ask Note down GI50 recorded for `Nc1sc(-c2ccncc2)nc1C(=O)Nc1cnccc1N1CCC[C@H](N)C1`
-- reply 410

-- ask Note down GI50 recorded for `Nc1sc(-c2ncccc2F)nc1C(=O)Nc1cnccc1N1CCC[C@H](N)C1`
-- reply 40.6

-- ask Note down GI50 recorded for `Nc1sc(-c2cccc(Br)c2)nc1C(=O)Nc1cnccc1N1CCC[C@H](N)C1`
-- reply 117

-- ask Note down GI50 recorded for `Nc1sc(-c2ccccc2)nc1C(=O)Nc1cnccc1N1CCC[C@H](N)C1`
-- reply 73
